target: serotonin receptor 5-HT1B (Rattus norvegicus, UniProt P28564); construct: membrane species are prepared from rat brains (Wistar) by homogenization of species of rat brain-cortices; from tissue; host or cells: rat (Wistar) brain cortex; experiment: Radioligand binding to serotonin receptor 5-HT1B ([125I] cyanopindolol, rat brain cortex membranes); conditions: read-out: 5-HT1B % inhibition
Sequence (P28564 whole entry): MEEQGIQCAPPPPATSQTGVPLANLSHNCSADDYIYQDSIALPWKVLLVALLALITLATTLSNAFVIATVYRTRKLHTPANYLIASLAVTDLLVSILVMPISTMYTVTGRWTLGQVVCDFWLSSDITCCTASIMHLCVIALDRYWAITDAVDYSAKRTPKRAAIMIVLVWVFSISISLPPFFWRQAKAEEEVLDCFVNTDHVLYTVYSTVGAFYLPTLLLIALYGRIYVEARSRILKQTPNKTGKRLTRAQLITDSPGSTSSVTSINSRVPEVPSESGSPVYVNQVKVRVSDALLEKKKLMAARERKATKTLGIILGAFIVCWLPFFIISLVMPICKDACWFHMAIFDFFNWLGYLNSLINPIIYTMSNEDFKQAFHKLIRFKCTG
Counter-ions that a name gives are not always drawn.
Provide the reported inhibition at 10 µM of each item.
Answers are plain numbers, in %.

# annotated cases, reported inhibition at 10 µM shown
COMPOUND	SYSTEM	inhibition at 10 µM [%]
CN1CCc2c(c3cc(F)ccc3n2Cc2ccccc2)C1 [1.9(3)·HCl]	serotonin receptor 5-HT1B (Rattus norvegicus, UniProt P28564)	12
Cc1ccc(CCn2c3c(c4cc(F)ccc42)CN(C)CCC3)cn1 [1.2.2(4-2)·2HCl]	serotonin receptor 5-HT1B (Rattus norvegicus, UniProt P28564)	60
Cc1ccc2c(c1)[C@@H]1CN(C)CCC[C@@H]1N2CCc1ccc(C)nc1 (relative stereo) [1.6.1(2)·3HCl]	serotonin receptor 5-HT1B (Rattus norvegicus, UniProt P28564)	-6

With those in mind, consider the next compound.
Reported inhibition at 10 µM for CN1CCc2c(c3ccccc3n2Cc2ccccc2)C1.Cl [1.9(1)·HCl] was 13

---

molecular target: human D1 receptor (Homo sapiens, UniProt P21728); construct: expressed in transfected cells; host or cells: CHO; assay: Radioligand binding to dopamine receptor D1 ([3H] SCH-23390, CHO membranes); conditions: Receptor D1
Sequence (P21728 whole entry): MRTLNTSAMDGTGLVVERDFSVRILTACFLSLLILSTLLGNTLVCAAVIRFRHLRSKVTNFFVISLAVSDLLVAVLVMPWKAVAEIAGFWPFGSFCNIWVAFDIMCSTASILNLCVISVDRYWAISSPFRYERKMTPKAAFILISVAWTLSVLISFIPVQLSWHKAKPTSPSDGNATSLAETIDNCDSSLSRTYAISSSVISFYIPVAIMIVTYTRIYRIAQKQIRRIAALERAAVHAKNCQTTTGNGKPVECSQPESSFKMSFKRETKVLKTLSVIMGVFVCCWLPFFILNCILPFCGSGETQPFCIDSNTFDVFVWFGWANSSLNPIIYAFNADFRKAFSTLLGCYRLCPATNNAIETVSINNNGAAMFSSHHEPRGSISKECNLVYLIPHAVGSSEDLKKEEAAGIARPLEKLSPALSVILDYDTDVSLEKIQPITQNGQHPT
MEASURE: IC50 (µM)
Numbers only, in µM.

Reported IC50 for CN1CCc2c(c3ccccc3n2Cc2ccccc2)C1 [1.9(1)·1/2NDSA] was 3.66

---

Provide the reported Ki of each item.
molecular target: recombinant human 5-HT6 receptor (Homo sapiens, UniProt P50406); test: Radioligand binding to serotonin receptor 5-HT6 ([3H] Lysergic acid diethylamide, HeLa membranes)
Sequence (P50406 whole entry): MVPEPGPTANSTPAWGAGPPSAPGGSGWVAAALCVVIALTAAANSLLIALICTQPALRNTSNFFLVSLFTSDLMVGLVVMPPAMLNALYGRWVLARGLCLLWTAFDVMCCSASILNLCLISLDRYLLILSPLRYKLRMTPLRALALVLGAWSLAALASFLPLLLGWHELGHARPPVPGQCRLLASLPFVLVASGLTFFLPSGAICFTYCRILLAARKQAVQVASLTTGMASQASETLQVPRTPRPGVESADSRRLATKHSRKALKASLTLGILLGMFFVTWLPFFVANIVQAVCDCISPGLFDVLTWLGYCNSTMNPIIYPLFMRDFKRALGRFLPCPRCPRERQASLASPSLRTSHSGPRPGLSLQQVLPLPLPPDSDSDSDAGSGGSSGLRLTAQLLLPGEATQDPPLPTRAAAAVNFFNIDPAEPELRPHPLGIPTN
Counter-ions that a name gives are not always drawn.
Answers are plain numbers, in nM.

# annotated cases, reported Ki shown
MOLECULE	MEASURE	MEAS VALUE
CN1CCc2c(c3ccccc3n2Cc2ccccc2)C1.Cl [1.9(1)·HCl]	Ki	63.2
Cc1ccc(S(=O)(=O)n2c3c(c4cc(C)ccc42)CN(C)CCC3)cc1 [1.8.1(3)·HCl]	Ki	307

With those in mind, consider the next molecule.
Reported Ki for Cc1ccc2c(c1)c1c(n2CCc2ccccn2)CCN(C)C1 [1.1.2(2-3)·2HCl] was 1.23

---

molecular target: serotonin receptor 5-HT1B (Rattus norvegicus, UniProt P28564); construct: membrane species are prepared from rat brains (Wistar) by homogenization of species of rat brain-cortices; from tissue; host or cells: rat (Wistar) brain cortex; assay: Radioligand binding to serotonin receptor 5-HT1B ([125I] cyanopindolol, rat brain cortex membranes); conditions: read-out: 5-HT1B % inhibition
Counter-ions that a name gives are not always drawn.
MEASURE: inhibition at 10 µM (%)
Numbers only, in %.

COMPOUND	SYSTEM	inhibition at 10 µM, %
Cc1ccc2c(c1)c1c(n2CCc2ccc(F)cc2)CCN(C)C1 [1.1.2(1-16)·HCl]	serotonin receptor 5-HT1B (Rattus norvegicus, UniProt P28564)	36
Cc1ccc2c(c1)c1c(n2Cc2ccccc2)CCCN(C)C1 [1.10(4)·HCl]	serotonin receptor 5-HT1B (Rattus norvegicus, UniProt P28564)	31
CN1CCc2c(c3cc(C(F)(F)F)ccc3n2CCc2ccccc2)C1 [1.1.2(1-7)·HCl]	serotonin receptor 5-HT1B (Rattus norvegicus, UniProt P28564)	13
CN1CCc2c(c3cc(F)ccc3n2CCCc2ccccc2)C1 [1.3.3(8)·HCl]	serotonin receptor 5-HT1B (Rattus norvegicus, UniProt P28564)	12

Answer for every listed entry: what is its inhibition at 10 µM? The entries follow.
1. Cc1ccc2c(c1)c1c(n2CCc2ccccc2)CCN(C)C1 [1.1.2(1-2)·HCl]
2. Cc1ccc2c(c1)c1c(n2CCc2ccncc2)CCN(C)C1 [1.1.2(5-2)·2HCl]
3. COc1ccc(CCn2c3c(c4cc(C)ccc42)CN(C)CC3)cc1 [1.1.2(1-14)·HCl]
4. Cc1ccc2c(c1)c1c(n2CCCc2ccccc2)CCN(C)C1 [1.3.3(2)·HCl]
5. Cc1ccc2c(c1)c1c(n2CCc2ccc(C(F)(F)F)cc2)CCN(C)C1 [1.1.2(1-18)·HCl]

1: 82; 2: 14; 3: 52; 4: 31; 5: 45
